Overview of recorded SARS-CoV-2 infection rate for various molecules
test system: Vero E6 infected with SARS-CoV-2; assay: SARS-CoV-2 infection rate relative to infected DMSO; higher = more infection, active = 60 or less; settings: 24 h
Unit % implied. Number only.

CN1C[C@@H](NS(=O)(=O)N(C)C)C[C@@H]2c3cccc4c3c(cn4C)C[C@H]21 [mesulergine] (10 µM)    93.5
CC[N+](CC)(CCNC(=O)C(=O)NCC[N+](CC)(CC)Cc1ccccc1Cl)Cc1ccccc1Cl [ambenonium] (10 µM)    106
Cc1nc(N)sc1CCN [amthamine] (10 µM)    92.5
CCCCCCCCCCCCCCCC(=O)OC[C@H](COP(=O)([O-])OCC[N+](C)(C)C)OC(=O)CCCCCCCCCCCCCCC [colfosceril-palmitate] (10 µM)    103

Inquiry: Using the record for CC1(C)C(=O)N(CCN2CCC(C(=O)c3ccc(F)cc3)CC2)c2ccccc21 (10 µM) , state its measured SARS-CoV-2 infection rate.
Reply text: 110

Inquiry: Using the record for COc1ccn2ncc(-c3nc4[nH]nc(NC(=O)c5ccc(F)cc5)c4cc3F)c2c1 (10 µM) , state its measured SARS-CoV-2 infection rate.
Reply text: 111

Inquiry: Using the record for Cc1c(Cl)cccc1S(=O)(=O)Nc1nc(CC(=O)N2CCN(C)CC2)cs1 (10 µM) , state its measured SARS-CoV-2 infection rate.
Reply text: 110
